study target: Retinoic acid receptor beta (Homo sapiens)
Sequence (P10826 whole entry): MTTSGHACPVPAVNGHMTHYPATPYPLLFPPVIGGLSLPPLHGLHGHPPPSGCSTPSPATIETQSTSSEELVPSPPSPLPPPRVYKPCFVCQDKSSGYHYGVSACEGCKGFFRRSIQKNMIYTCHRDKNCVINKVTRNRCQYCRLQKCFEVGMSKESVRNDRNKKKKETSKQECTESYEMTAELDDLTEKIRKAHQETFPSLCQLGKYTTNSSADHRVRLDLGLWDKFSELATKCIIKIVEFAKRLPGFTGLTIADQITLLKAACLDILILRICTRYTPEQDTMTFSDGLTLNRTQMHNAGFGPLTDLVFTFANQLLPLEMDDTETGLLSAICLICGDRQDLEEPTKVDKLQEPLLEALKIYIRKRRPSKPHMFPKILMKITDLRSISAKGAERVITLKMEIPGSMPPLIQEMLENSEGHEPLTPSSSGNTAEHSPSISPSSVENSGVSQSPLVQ
recorded endpoint: pIC50
Give bare numbers, as −log10 of the molar value.

Lab note: need pIC50 with Retinoic acid receptor beta (Homo sapiens) for entry CC1=C(/C=C/C(C)=C/C=C/C(C)=C/C(=O)O)C(C)(C)CCC1n1cncn1 (racemic) , please look it up. 6.00
